- Measured On: 5-hydroxytryptamine receptor 4 (Homo sapiens, UniProt Q13639)
- Sequence (Q13639 whole entry): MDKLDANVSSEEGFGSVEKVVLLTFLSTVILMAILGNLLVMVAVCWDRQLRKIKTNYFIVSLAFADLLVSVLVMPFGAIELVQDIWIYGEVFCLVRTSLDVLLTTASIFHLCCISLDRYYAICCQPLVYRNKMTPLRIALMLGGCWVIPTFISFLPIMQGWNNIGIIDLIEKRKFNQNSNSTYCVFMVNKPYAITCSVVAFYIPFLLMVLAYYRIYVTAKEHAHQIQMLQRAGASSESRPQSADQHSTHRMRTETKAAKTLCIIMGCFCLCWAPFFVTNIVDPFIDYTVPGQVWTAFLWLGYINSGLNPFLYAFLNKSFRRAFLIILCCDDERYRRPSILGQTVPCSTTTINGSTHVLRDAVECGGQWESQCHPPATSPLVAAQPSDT
- Measurement Notes: Displacement of [3H]GR113808 from human recombinant 5HT4 receptor
Endpoint Name: Ki
Kindly format the answer as number then unit.

// known answers, use as guide
CSC1=NC(=O)/C(=C/c2c[nH]c3cccc(Br)c23)N1; 1.06 µM
O=C1NC(=S)N/C1=C\c1c[nH]c2c(Br)cccc12; 2.21 µM
C/N=C1\NC(=O)/C(=C/c2c[nH]c3c(Br)cccc23)N1; 0.603 µM
CSC1=NC(=O)/C(=C/c2c[nH]c3ccc(Br)cc23)N1; 3.8 µM
C/N=C1\NC(=O)/C(=C/c2c[nH]c3ccc(Br)cc23)N1; 0.226 µM

Now look at this one.
Ask: Assign Ki to the following record: CSC1=NC(=O)/C(=C/c2c[nH]c3c(Br)cccc23)N1
Reply: 2.35 µM
